pIC50: −log10 of the molar value.
experimentalReadout: pIC50

## Task Query the reported pIC50 for Tyrosine-protein kinase Lck (Homo sapiens); item: `CC(C)n1cc(-c2ccc(Oc3ccccc3[N+](=O)[O-])cc2)c2c(N)ncnc21`
## Result > 8.52

## Task Query the reported pIC50 for Tyrosine-protein kinase Lck (Homo sapiens); item: `CC(C)n1cc(-c2ccc(Oc3ccc(CO)cc3)cc2)c2c(N)ncnc21`
## Result > 8.52

## Task Query the reported pIC50 for Tyrosine-protein kinase Lck (Homo sapiens); item: `CC(C)n1cc(-c2ccc(Oc3ccccc3CO)cc2)c2c(N)ncnc21`
## Result > 8.52
